system: OVCAR-8 ovarian; assay: NCI tumour cell line growth inhibition, 48 h
quantity measured: GI50

Below, each entry is followed by its recorded GI50 result.
# compound, GI50
measured = [
    ("CC(=O)O.CC(=O)O.CC(=O)O.CC(=O)O.CC(=O)O.CC(=O)O.O.[Ti].[Ti]", "> 100 µM"),
    ("C/C1=C\\CC[C@@]2(C)O[C@@H]2[C@H]2OC(=O)[C@@H](CN(C)C)[C@@H]2CC1", "23.2 µM"),
    ("C[As](C)SC1OC(CO)C(O)C1O (configuration not stated)", "0.694 µM"),
    ("CC1OC2CC(=O)OC2C2=C1C(=O)c1c(O)cccc1C2=O (configuration not stated)", "0.0501 µM"),
]

IN: Requested read-out: GI50. Entry: `O=C(c1ccccc1)c1cc(Cl)ccc1OCCCCN1CCN(CCCCOc2ccc(Cl)cc2C(=O)c2ccccc2)CC1`
OUT: 1.82 µM

IN: Requested read-out: GI50. Entry: `Cc1ccc2c(n1)C(=O)c1[nH]c3ccccc3c1C2=O`
OUT: 2.61 µM

IN: Requested read-out: GI50. Entry: `CNCCNc1c2c(c(NCCNC)c3c(CN(C)C)c[nH]c13)C(=O)c1ccccc1C2=O`
OUT: 3.28 µM

IN: Requested read-out: GI50. Entry: CC(O)C(N=Cc1ccccc1[O-])C(=O)[O-].CC(O)C(N=Cc1ccccc1[O-])C(=O)[O-].[Co+2] (configuration not stated)
OUT: > 100 µM

IN: Requested read-out: GI50. Entry: `O=S(=O)([O-])c1ccc2c(c1)-c1nc-2nc2[n-]c(nc3nc(nc4[n-]c(n1)c1ccc(S(=O)(=O)[O-])cc41)-c1cc(S(=O)(=O)[O-])ccc1-3)c1ccc(S(=O)(=O)[O-])cc21.[Cu+2].[Na+]`
OUT: > 100 µM

IN: Requested read-out: GI50. Entry: `O=S(=O)(Nc1cc(F)cc(Cl)c1)c1ccc(-c2cnc(C3CC3)o2)cc1`
OUT: 3.72 µM

IN: Requested read-out: GI50. Entry: `COc1ccc(N(C)c2ncnc3occ(C)c23)cc1`
OUT: < 0.01 µM

IN: Requested read-out: GI50. Entry: `COC(=O)c1cc2c(cc1O)[C@@H](NC(C)=O)CCc1cc(OC)c(OC)c(OC)c1-2`
OUT: 0.0404 µM
